assay-method-text: AUC in CD1 mouse assessed as pibrentasvir1 level at 6 mg/kg, po measured up to 24 hrs
Type: ADME, organism-based
Set-up: route oral, dose 6 mg/kg, time <=24
particulars: in vivo
Measured AUC by item
Number in ng·h/mL, nothing else.

Example cases with answers are listed next.
COC(=O)N[C@H](C(=O)N1CCC[C@H]1c1nc2cc(F)c([C@H]3CC[C@H](c4cc5nc([C@@H]6CCCN6C(=O)[C@@H](NC(=O)OC)[C@@H](C)OC)n(COC(=O)[C@@H](NC(=O)OCOP(=O)(O)O)C(C)C)c5cc4F)N3c3cc(F)c(N4CCC(c5ccc(F)cc5)CC4)c(F)c3)cc2[nH]1)[C@@H](C)OC ... 8840
COC(=O)N[C@H](C(=O)N1CCC[C@H]1c1nc2cc(F)c([C@H]3CC[C@H](c4cc5c(cc4F)nc([C@@H]4CCCN4C(=O)[C@@H](NC(=O)OC)[C@@H](C)OC)n5COC(=O)[C@@H](NC(=O)OCOP(=O)(O)O)C(C)C)N3c3cc(F)c(N4CCC(c5ccc(F)cc5)CC4)c(F)c3)cc2[nH]1)[C@@H](C)OC ... 8930
COC(=O)N[C@H](C(=O)N1CCC[C@H]1c1nc2cc(F)c([C@H]3CC[C@H](c4cc5c(cc4F)nc([C@@H]4CCCN4C(=O)[C@@H](NC(=O)OC)[C@@H](C)OC)n5COC(=O)CCCOP(=O)(O)O)N3c3cc(F)c(N4CCC(c5ccc(F)cc5)CC4)c(F)c3)cc2[nH]1)[C@@H](C)OC ... 12600
COC(=O)N[C@H](C(=O)N1CCC[C@H]1c1nc2cc(F)c([C@H]3CC[C@H](c4cc5nc([C@@H]6CCCN6C(=O)[C@@H](NC(=O)OC)[C@@H](C)OC)n(COC(=O)N(C)c6ncccc6COP(=O)(O)O)c5cc4F)N3c3cc(F)c(N4CCC(c5ccc(F)cc5)CC4)c(F)c3)cc2[nH]1)[C@@H](C)OC ... 6490
COC(=O)N[C@H](C(=O)N1CCC[C@H]1c1nc2cc(F)c([C@H]3CC[C@H](c4cc5c(cc4F)nc([C@@H]4CCCN4C(=O)[C@@H](NC(=O)OC)[C@@H](C)OC)n5COC(=O)c4cccc(OP(=O)(O)O)c4)N3c3cc(F)c(N4CCC(c5ccc(F)cc5)CC4)c(F)c3)cc2[nH]1)[C@@H](C)OC ... 819

Exercise: Give the measured AUC of "COC(=O)N[C@H](C(=O)N1CCC[C@H]1c1nc2cc(F)c([C@H]3CC[C@H](c4cc5nc([C@@H]6CCCN6C(=O)[C@@H](NC(=O)OC)[C@@H](C)OC)n(COC(=O)Cc6ccc(OP(=O)(O)O)cc6)c5cc4F)N3c3cc(F)c(N4CCC(c5ccc(F)cc5)CC4)c(F)c3)cc2[nH]1)[C@@H](C)OC" .
Solution: 16100

Exercise: Give the measured AUC of "COC(=O)N[C@H](C(=O)N1CCC[C@H]1c1nc2cc(F)c([C@H]3CC[C@H](c4cc5nc([C@@H]6CCCN6C(=O)[C@@H](NC(=O)OC)[C@@H](C)OC)n(COC(=O)CC(C)(C)c6c(C)cc(C)cc6OP(=O)(O)O)c5cc4F)N3c3cc(F)c(N4CCC(c5ccc(F)cc5)CC4)c(F)c3)cc2[nH]1)[C@@H](C)OC" .
Solution: 20600
